// provenance: patent US8822517B2

# target-or-test-system: serotoninergic receptor 5-HT2C (Homo sapiens)
# Construct: expressed in transfected cells; host or cells: HEK-293 cells
# Sequence (P28335 33-458): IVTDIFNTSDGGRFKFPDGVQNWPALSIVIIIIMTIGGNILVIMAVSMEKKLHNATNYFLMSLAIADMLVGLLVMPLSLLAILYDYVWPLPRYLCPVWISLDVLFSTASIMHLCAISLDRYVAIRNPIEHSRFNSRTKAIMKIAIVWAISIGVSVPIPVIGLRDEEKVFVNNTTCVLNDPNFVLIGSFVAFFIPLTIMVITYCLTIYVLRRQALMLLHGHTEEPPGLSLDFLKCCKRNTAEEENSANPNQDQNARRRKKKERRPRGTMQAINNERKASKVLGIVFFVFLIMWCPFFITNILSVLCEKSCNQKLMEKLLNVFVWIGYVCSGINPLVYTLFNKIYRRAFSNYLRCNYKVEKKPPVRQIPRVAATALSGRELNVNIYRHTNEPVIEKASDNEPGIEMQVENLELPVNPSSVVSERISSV
# protocol: Binding assay 5-HT2C (h), [3H]mesulergine, HEK-293 cells
# measurement-conditions: read-out: 5-HT2C [%]
# Procedure: The specific ligand binding to the receptors is defined as the difference between the total binding and the nonspecific binding determined in the presence of an excess of so unlabelled ligand. The specific Ligand binding to the receptor is defined as the difference between total and non-specific binding determined in the presence of an excess of unlabelled ligand. The compounds were tested at a concentration of 1×10^−6 M, and scintillation counting was the method of detection of ligand binding.
inhibition at 1 µM of 70% or higher: T. Under 70%: F.

* O=S(=O)(NCCCCN1CCC(c2noc3cc(F)ccc23)CC1)c1cc2ccccc2s1 [Compound 312] | T
* N#Cc1cccc(S(=O)(=O)NCCCN2CCN(c3nsc4ccccc34)CC2)c1 [Compound 74] | T
* O=S(=O)(NCCCCN1CCN(c2noc3ccccc23)CC1)c1c[nH]c2ncccc12 [Compound 89] | F
* Cc1c(S(=O)(=O)NCCCCN2CCN(c3noc4ccccc34)CC2)sc2ccc(F)cc12 [Compound 81] | F

Ask | Identify whether the reported inhibition at 1 µM of the following compound is 70% or greater: O=S(=O)(NCCCCN1CCN(c2nsc3ccccc23)CC1)c1csc2ccccc12 [Compound 240]
Reply | T

Ask | Identify whether the reported inhibition at 1 µM of the following compound is 70% or greater: Cc1cccc(S(=O)(=O)NCCCCN2CCC(c3noc4cc(F)ccc34)CC2)c1 [Compound 19]
Reply | F

Ask | Identify whether the reported inhibition at 1 µM of the following compound is 70% or greater: O=S(=O)(NCCCCN1CCC(c2noc3cc(F)ccc23)CC1)c1ccc2c(c1)OCCO2 [Compound 321]
Reply | F

Ask | Identify whether the reported inhibition at 1 µM of the following compound is 70% or greater: O=S(=O)(NCCCCN1CCC(c2noc3cc(F)ccc23)CC1)c1ccc(Cl)s1 [Compound 308]
Reply | F

Ask | Identify whether the reported inhibition at 1 µM of the following compound is 70% or greater: O=S(=O)(NCCCCN1CCN(c2cccc3[nH]ccc23)CC1)c1ccccc1 [Compound 27]
Reply | F
